# Test system: 299254-011-R-J1-PDC complex spheroids viability
# Experiment notes: Anticancer human tumor 299254-011-R-J1-PDC patient-derived melanoma cell line growth inhibition [GQUAD]
# Condition details: second compound 3.16 µM; first compound 0.1 µM; stronger effect = lower value
# Excerpt: DNA G-quadruplex Stabilizer Agents in Combinations in Complex Spheroids A high-throughput screen of multi-cell type tumor spheroids was designed to identify active combinations of DNA G-quadruplex stabilizer agents and targeted small molecules. […] Compounds. […] If the clinical Cmax for an agent had not been determined, the highest concentration tested was 10 microM. […]
Here, each record is paired with measured viability, T/C data.

Compound | Unit abbrev | viability, T/C
COc1ccc([C@@H](O)c2cc(-c3ncnc4cc(N5CCOCC5)ccc34)c(F)cc2Cl)nn1 + Cc1[nH]c2ccc(F)cc2c1-c1nc2c3cccnc3c3ncccc3c2[nH]1 | % | 120
Nc1ccn(C2OC(CO)C(O)C2(F)F)c(=O)n1 (stereo not given) + Cc1cnc(CNC(=O)c2c(=O)c3ccc(N4CCCN(C)CC4)nc3n3c2sc2ccccc23)cn1 | % | 69.3
CCCS(=O)(=O)Nc1ccc(F)c(C(=O)c2c[nH]c3ncc(-c4ccc(Cl)cc4)cc23)c1F + Cc1cnc(CNC(=O)c2c(=O)c3ccc(N4CCCN(C)CC4)nc3n3c2sc2ccccc23)cn1 | % | 96.6
CC(C)n1c(=O)n(C)c2cnc3cc(F)c(-c4ccc(OCCCN5CCCCC5)nc4)cc3c21 + CN(C)c1ccc(Nc2c3ccc(NC(=O)CCN4CCCC4)cc3nc3cc(NC(=O)CCN4CCCC4)ccc23)cc1 | % | 81.8
Cc1cccc(N(C)C(=O)C2C(O)CCN2c2nc(C)cc(C(F)(F)F)c2C#N)c1 (stereo not given) + CN(C)c1ccc(Nc2c3ccc(NC(=O)CCN4CCCC4)cc3nc3cc(NC(=O)CCN4CCCC4)ccc23)cc1 | % | 99.6

----------
# Test system: 299254-011-R-J1-PDC complex spheroids viability
# Experiment notes: Anticancer human tumor 299254-011-R-J1-PDC cell line growth inhibition [GQUAD];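 note: spheroids exposed to the agents for seven days before readout; percent viability relative to DMSO vehicle control wells = 100%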
# Condition details: second compound 10 µM; first compound 10 µM; stronger effect = lower value
Param label: returns 1.0 when viability, T/C < 20%, returns 0.0 otherwise, including exact equality.

Compound | Tested target | Class name
O=c1[nH]cc(F)c(=O)[nH]1 + Cc1cnc(CNC(=O)c2c(=O)c3ccc(N4CCCN(C)CC4)nc3n3c2sc2ccccc23)cn1 | 299254-011-R-J1-PDC complex spheroids viability | 1.0
COc1cccc2c1C(=O)c1c(O)c3c(c(O)c1C2=O)CC(O)(C(=O)CO)CC3OC1CC(N)C(O)C(C)O1 (stereo not given) + CN(C)c1ccc(Nc2c3ccc(NC(=O)CCN4CCCC4)cc3nc3cc(NC(=O)CCN4CCCC4)ccc23)cc1 | 299254-011-R-J1-PDC complex spheroids viability | 0.0
C=CC(=O)N1CCN(c2nc(=O)n(-c3c(C)ccnc3C(C)C)c3nc(-c4c(O)cccc4F)c(F)cc23)C(C)C1 (stereo not given) + Cc1cnc(CNC(=O)c2c(=O)c3ccc(N4CCCN(C)CC4)nc3n3c2sc2ccccc23)cn1 | 299254-011-R-J1-PDC complex spheroids viability | 1.0
CC1COCCN1c1cc(-c2ccnn2C)c2ccnc(-c3ccn[nH]3)c2n1 (stereo not given) + Cc1[nH]c2ccc(F)cc2c1-c1nc2c3cccnc3c3ncccc3c2[nH]1 | 299254-011-R-J1-PDC complex spheroids viability | 1.0
COc1ccc([C@@H](O)c2cc(-c3ncnc4cc(N5CCOCC5)ccc34)c(F)cc2Cl)nn1 + Cc1cnc(CNC(=O)c2c(=O)c3ccc(N4CCCN(C)CC4)nc3n3c2sc2ccccc23)cn1 | 299254-011-R-J1-PDC complex spheroids viability | 1.0

// data source = PubChem BioAssay AID2060513
